- Protocol notes: Spectroscopic measurements (absorption, emission, quantum yield, extinction coefficient)
- Assay type: physicochemical
- Condition set: BDNCA library
Values of Qunt. Yield strictly less than 0.1 map to Criterion met, and values of at least 0.1 map to Criterion not met.

Would you please look over these solved cases?
# Molecular string, Qualitative label
rows = [
    ("CC1=CC(/C=C/c2ccc(C)c(F)c2)=[N+]2C1=C(c1ccc(NC(=O)CCl)cc1)c1cccn1[B-]2(F)F", "Criterion not met"),
    ("CC1=CC(/C=C/c2ccc(Oc3cccc(Cl)c3)cc2)=[N+]2C1=C(c1ccc(NC(=O)CCl)cc1)c1cccn1[B-]2(F)F", "Criterion not met"),
    ("CC1=CC(/C=C/c2cccc3c2OCO3)=[N+]2C1=C(c1ccc(NC(=O)CCl)cc1)c1cccn1[B-]2(F)F", "Criterion met"),
    ("COc1c(Br)cc(Br)cc1/C=C/C1=[N+]2C(=C(c3ccc(NC(=O)CCl)cc3)c3cccn3[B-]2(F)F)C(C)=C1", "Criterion met"),
    ("CC1=CC(/C=C/c2ccc(OC(F)(F)F)cc2)=[N+]2C1=C(c1ccc(NC(=O)CCl)cc1)c1cccn1[B-]2(F)F", "Criterion met"),
    ("COC(=O)c1ccc(/C=C/C2=[N+]3C(=C(c4ccc(NC(=O)CCl)cc4)c4cccn4[B-]3(F)F)C(C)=C2)cc1", "Criterion not met"),
]

Next up:
Strictly below 0.1 in Qunt. Yield? COc1cccc(/C=C/C2=[N+]3C(=C(c4ccc(NC(=O)CCl)cc4)c4cccn4[B-]3(F)F)C(C)=C2)c1
Criterion not met
